Reported SIF Stability (pH 6.8) 60 min values for a set of compounds
PROTOCOL DESCRIPTION: Metabolic stability in simulated intestinal fluid (SIF), pH 6.8, with or without pancreatin
Format: in vitro ADME
RUN CONDITIONS: −Pancreatin, 5 μM, 37° C., 60 min
Where a SMILES comes first, the peptide text is derived from it. [ ]: non-standard residue; d: D form. The star is where a group is joined. ξ: configuration not given here. pY = N[CH](Cc1ccc(OP(=O)(O)O)cc1)C(=O)O; ξpY = NC(Cc1ccc(OP(=O)(O)O)cc1)C(=O)O; Ile(3ξ) = CCC(C)[C@H](N)C(=O)O; Hexanoyl = CCCCCC(=O)*; Ahx = NCCCCCC(=O)O

{"columns": ["COMPOUND", "SIF Stability (pH 6.8) 60 min"],
 "data": [
  ["CCCCCC(=O)N[C@@H](Cc1ccc(O)cc1)C(=O)N[C@H](C(=O)NCCCCCC(N)=O)[C@@H](C)CC [Base Structure, reference compound] (Hexanoyl-Tyr-Ile-[Ahx]-NH2)", "119%"],
  ["CCCCCC(=O)N1C(Cc2ccc(OP(=O)([O-])[O-])cc2)C(=O)N(C(C(=O)NCCCCCC(N)=O)C(C)CC)C12CCN(C)CC2.[Na+].[Na+] (stereo not drawn)", "82%"],
  ["CCCCCC(=O)NC(Cc1ccc(OP(=O)(O)O)cc1)C(=O)N[C@H](C(=O)NCCCCCC(N)=O)C(C)CC.N.N (stereo partly drawn) [Compound A29] (Hexanoyl-[ξpY]-[Ile(3ξ)]-[Ahx]-NH2)", "96%"],
  ["CCCCCC(=O)NC(Cc1ccc(OP(=O)(OCCN(C)C)OCCN(C)C)cc1)C(=O)NC(C(=O)NCCCCCC(N)=O)C(C)CC (stereo not drawn)", "25%"],
  ["CCCCCC(=O)NC(Cc1ccc(OC(=O)N2CCN(C)CC2)cc1)C(=O)NC(C(=O)NCCCCCC(N)=O)C(C)CC (stereo not drawn)", "65%"],
  ["CCCCCC(=O)NC(Cc1ccc(OP(=O)([O-])O)cc1)C(=O)NC(C(=O)NCCCCCC(N)=O)C(C)CC.[Na+] (stereo not drawn) [Compound A30] (Hexanoyl-[pY]-Ile-[Ahx]-NH2; configuration not given here)", "43%"]
]}

----------
PROTOCOL DESCRIPTION: Plasma stability study, rat plasma
Format: in vitro ADME
RUN CONDITIONS: Rat plasma, 1 μM, 37° C.
METRIC NAME: half-life

{"columns": ["COMPOUND", "METRIC NAME", "MEAS VALUE"],
 "data": [
  ["CCCCCC(=O)N1C(Cc2ccc(OP(=O)([O-])[O-])cc2)C(=O)N(C(C(=O)NCCCCCC(N)=O)C(C)CC)C12CCN(C)CC2.[Na+].[Na+] (stereo not shown)", "half-life", "18.1 h"]
]}

----------
# SGF Stability (pH 1.2) Half-Life (min) listing for each entry below
PROTOCOL DESCRIPTION: Metabolic stability in simulated gastric fluid (SGF), pH 1.2, with or without pepsin
Assay type: in vitro ADME
RUN CONDITIONS: −Pepsin, 5 μM, 37° C.
Where a SMILES comes first, the peptide text is derived from it. [ ]: non-standard residue; d: D form. The star is where a group is joined. pY = N[CH](Cc1ccc(OP(=O)(O)O)cc1)C(=O)O; Hexanoyl = CCCCCC(=O)*; Ahx = NCCCCCC(=O)O
METRIC NAME: SGF Stability (pH 1.2) Half-Life (min)

{"columns": ["MOLECULE", "MEAS VALUE"],
 "data": [
  ["CCCCCC(=O)NC(Cc1ccc(OC(=O)N2CCN(C)CC2)cc1)C(=O)NC(C(=O)NCCCCCC(N)=O)C(C)CC (centres unmarked)", 116.5],
  ["CCCCCC(=O)NC(Cc1ccc(OP(=O)(OCCN(C)C)OCCN(C)C)cc1)C(=O)NC(C(=O)NCCCCCC(N)=O)C(C)CC (centres unmarked)", 42.6],
  ["CCCCCC(=O)NC(Cc1ccc(OP(=O)([O-])O)cc1)C(=O)NC(C(=O)NCCCCCC(N)=O)C(C)CC.[Na+] (centres unmarked) [Compound A30] (Hexanoyl-[pY]-Ile-[Ahx]-NH2; configuration not given here)", 1713.6]
]}

From: patent US12421276B2
